ASSAY: Displacement of [3H]-diprenorphine from opioid receptor in rat brain membrane homogenates after 1 hr by liquid scintillation counting
Type: cell membranes
PROPERTY_MEASURED: Ki (µM)

Use the examples below as a reference point.
SUBSTANCE_SMILES	Ki / µM
COC(=O)[C@@H]1[C@@H]2CCC[C@H]1N(Cc1ccccc1)CC2	14.8
O=C(Oc1cccc(O)c1)[C@@H]1[C@@H]2CCC[C@H]1NCC2	4.04

[1] COC(=O)[C@H](Cc1ccccc1)NC(=O)[C@@H]1[C@@H]2CCC[C@H]1NCC2
[2] O=C(Oc1ccc(O)cc1)[C@@H]1[C@@H]2CCC[C@H]1NCC2
Higher Ki: 1 or 2 ? I would appreciate it if you answered with the label of your choice.
1
(1: 14.8 µM, 2: 1.92 µM)
